# ASSAY REMARKS: in vivo
# MEASUREMENT SETUP: male, BALB/c, mouse, po, 50 mg/kg, Cmax
READOUT: Cmax

Record summary for O=C(Nc1ccccc1)c1ccc(-c2ccc(OC3CCNCC3)cc2)s1 : reported Cmax = 773 ng/mL

====

# Test system: wild-type Zaire EBOV Mayinga 1976 strain (EBOV May)
# ASSAY REMARKS: microbe, parasite or virus in culture
# MEASUREMENT SETUP: Zaire ebolavirus, Vero C1008, 72 h, read-out: EC50 (EBOV May)
READOUT: pEC50
Remember the convention: pEC50 equals -log10 of concentration in molar.

* O=C(Nc1ccc(Cl)cc1)c1ccc(-c2ccc(OC3CCNCC3)cc2)s1 | 5.62
* O=C(Nc1ccc(Cl)cc1)c1ccc(-c2ccccc2OC2CCNCC2)s1 | 5.81
* O=C(NCCc1ccccc1)c1ccc(-c2cccc(OC3CCNCC3)c2)s1 | 5.31

Test item O=C(NCCC1CCN(Cc2ccccc2)CC1)c1cnc(-c2ccc(OC3CCNCC3)cc2)s1 ; wild-type Zaire EBOV Mayinga 1976 strain (EBOV May); reported pEC50 was 5.11

Form field pEC50 for item O=C(Nc1ccc(Cl)cc1)c1ccc(-c2cccc(OC3CCNCC3)c2)s1 on wild-type Zaire EBOV Mayinga 1976 strain (EBOV May): 5.95

Let me check: O=C(NCCc1ccccc1)c1ccc(-c2ccccc2OC2CCNCC2)o1 , system wild-type Zaire EBOV Mayinga 1976 strain (EBOV May), measured pEC50 is 5.21

Measured on wild-type Zaire EBOV Mayinga 1976 strain (EBOV May), O=C(NCCc1ccccc1)c1cnc(-c2ccccc2OC2CCNCC2)s1 has a documented pEC50 of 4.80

====

# ASSAY REMARKS: in vitro
# MEASUREMENT SETUP: chlorocebus sabaeus
Let's look at some compounds and their measured CC50 at 24 h.
Answer format: numeric, µM implied, no suffix.

Below: 5 compounds and their reported CC50 at 24 h.
- O=C(Nc1ccccc1)c1ccc(-c2cccc(OC3CCNCC3)c2)o1: 14.1
- O=C(NCCc1ccccc1)c1ccc(-c2ccccc2OC2CCNCC2)o1: 27.6
- O=C(Nc1cccc(Cl)c1)c1ccc(-c2cccc(OC3CCNCC3)c2)s1: 15
- O=C(NCCc1ccccc1)c1ccc(-c2ccc(OC3CCNCC3)cc2)s1: 10
- O=C(NCCc1ccccc1)c1ccc(-c2cccc(OC3CCNCC3)c2)s1: 10

For record O=C(Nc1ccc(N2CCOCC2)cc1)c1ccc(-c2ccccc2OC2CCNCC2)s1 the listed CC50 at 24 h is 22

response.value for O=C(Nc1ccccc1)c1ccc(-c2ccccc2OC2CCNCC2)o1 (field: CC50 at 24 h) = 79

CC50 at 24 h for O=C(Nc1cccc(Cl)c1)c1ccc(-c2ccc(OC3CCNCC3)cc2)s1 is 26

====

Measured CC50 at 24 h of individual entries
# ASSAY REMARKS: in vitro
# MEASUREMENT SETUP: chlorocebus sabaeus
Give the value, in units of µM, as a plain number.

Solved cases below.
• O=C(Nc1cccc(Cl)c1)c1ccc(-c2ccccc2OC2CCNCC2)s1 [compound 48] = 22.3
• O=C(Nc1ccccc1)c1ccc(-c2ccccc2OC2CCNCC2)s1 [compound 1] = 34
• O=C(NCCc1ccccc1)c1ccc(-c2ccccc2OC2CCNCC2)s1 [compound 49] = 29.2
• O=C(Nc1ccc(Cl)cc1)c1ccc(-c2cccc(OC3CCNCC3)c2)s1 [compound 54] = 10
• O=C(Nc1ccc(Cl)cc1)c1ccc(-c2ccc(OC3CCNCC3)cc2)s1 [compound 58] = 10

compound O=C(Nc1ccccc1)c1ccc(-c2ccc(OC3CCNCC3)cc2)s1 [compound 57] , CC50 at 24 h observed: 11

// O=C(NCCC1CCN(Cc2ccccc2)CC1)c1ccc(-c2ccccc2OC2CCNCC2)s1 [compound 51] : CC50 at 24 h value = 19.5

What the record says about O=C(Nc1ccc(Cl)cc1)c1ccc(-c2ccccc2OC2CCNCC2)o1 [compound 99] : CC50 at 24 h is 20

// sample O=C(Nc1ccccc1)c1ccc(-c2cccc(OC3CCNCC3)c2)s1 [compound 53] , its CC50 at 24 h was 33.9

====

Each entry below carries its measured antiviral activity against pEBOV (in words), system: EBOV-GP-pseudotyped virus (pEBOV).
READOUT: antiviral activity against pEBOV (in words)

• O=C(c1ccc(-c2ccccc2OC2CCNCC2)s1)N1CCCC1 = completely inactive
• O=C(NCCc1ccccc1)c1ccc(-c2ccc(OC3CCNCC3)cc2)s1 = completely inactive
• O=C(NCCC1CCN(Cc2ccccc2)CC1)c1ccc(-c2ccc(OC3CCNCC3)cc2)s1 = completely inactive

====

Each entry below carries its recorded pIC50.
# EXPERIMENTAL TARGET: hERG potassium channel (Homo sapiens)
# Sequence (Q12809 whole entry): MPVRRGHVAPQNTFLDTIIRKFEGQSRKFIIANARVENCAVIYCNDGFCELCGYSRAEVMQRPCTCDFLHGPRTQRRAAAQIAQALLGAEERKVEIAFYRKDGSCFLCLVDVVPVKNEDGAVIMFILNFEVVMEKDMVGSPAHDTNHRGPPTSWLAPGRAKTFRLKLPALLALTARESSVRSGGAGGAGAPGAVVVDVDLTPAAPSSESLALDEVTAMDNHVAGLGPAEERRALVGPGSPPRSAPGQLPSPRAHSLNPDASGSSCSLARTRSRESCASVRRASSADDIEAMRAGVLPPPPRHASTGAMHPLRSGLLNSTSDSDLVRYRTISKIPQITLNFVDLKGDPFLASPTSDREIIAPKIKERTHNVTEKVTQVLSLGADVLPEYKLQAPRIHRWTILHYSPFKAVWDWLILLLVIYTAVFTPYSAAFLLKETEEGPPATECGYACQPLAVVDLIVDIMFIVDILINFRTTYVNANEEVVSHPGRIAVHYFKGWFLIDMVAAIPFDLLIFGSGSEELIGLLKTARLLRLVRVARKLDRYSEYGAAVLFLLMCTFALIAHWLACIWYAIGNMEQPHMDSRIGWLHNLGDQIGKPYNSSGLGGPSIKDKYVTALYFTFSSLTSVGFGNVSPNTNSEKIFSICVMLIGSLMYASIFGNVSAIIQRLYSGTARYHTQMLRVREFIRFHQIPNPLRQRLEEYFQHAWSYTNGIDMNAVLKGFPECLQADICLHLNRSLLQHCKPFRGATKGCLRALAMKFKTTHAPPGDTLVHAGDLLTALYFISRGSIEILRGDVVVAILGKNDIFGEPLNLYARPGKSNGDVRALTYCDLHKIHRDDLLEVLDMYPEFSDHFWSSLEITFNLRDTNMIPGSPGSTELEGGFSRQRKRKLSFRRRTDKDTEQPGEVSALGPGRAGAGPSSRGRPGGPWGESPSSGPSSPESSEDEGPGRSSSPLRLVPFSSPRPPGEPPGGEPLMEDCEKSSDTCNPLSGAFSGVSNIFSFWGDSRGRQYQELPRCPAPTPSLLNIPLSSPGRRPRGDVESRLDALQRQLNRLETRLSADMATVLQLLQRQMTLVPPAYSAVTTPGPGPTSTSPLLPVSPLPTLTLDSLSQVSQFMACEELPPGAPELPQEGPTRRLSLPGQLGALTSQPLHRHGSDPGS
# ASSAY REMARKS: in vitro
Kindly note that pIC50 refers to -log10 of the concentration in mol/L and answer with the value alone.

• O=C(Nc1ccccc1)c1ccc(-c2ccccc2OC2CCNCC2)s1 = 4.97

Now consider a different molecule.
// pIC50 lookup, molecule = O=C(Nc1ccccc1)c1ccc(-c2ccc(OC3CCNCC3)cc2)s1 , result: 4.31

====

// reported half-life at 24 h for each item listed
# ASSAY REMARKS: in vivo
# MEASUREMENT SETUP: male, BALB/c, mouse, po, 50 mg/kg
Give the value, in units of h, as a plain number.

- O=C(Nc1ccccc1)c1ccc(-c2ccc(OC3CCNCC3)cc2)s1 [compound 57]: 8.76

--- query ---
Memo: O=C(Nc1ccccc1)c1ccc(-c2ccccc2OC2CCNCC2)s1 [compound 1] , reported half-life at 24 h: 5.6

====

half-life at 24 h listing for selected compounds.
# ASSAY REMARKS: in vivo
# MEASUREMENT SETUP: male, BALB/c, mouse, ip, 10 mg/kg
// note: answer is a bare numeric in h

* O=C(Nc1ccccc1)c1ccc(-c2ccccc2OC2CCNCC2)s1 | 1.96

We next turn to a different compound, shown below.
Sample O=C(Nc1ccccc1)c1ccc(-c2ccc(OC3CCNCC3)cc2)s1 ; half-life at 24 h observed: 5.18

====

# Test system: wild-type Zaire EBOV Mayinga 1976 strain (EBOV May)
# ASSAY REMARKS: microbe, parasite or virus in culture
# MEASUREMENT SETUP: Zaire ebolavirus, Vero C1008, 72 h, read-out: EC50 (EBOV May)
READOUT: pEC50
In textbook form, pEC50 equals minus log to base ten of the concentration in mol/L.

Sample records with pEC50:
- O=C(Nc1cccc(Cl)c1)c1ccc(-c2cccc(OC3CCNCC3)c2)s1: 5.73
- O=C(NCCC1CCN(Cc2ccccc2)CC1)c1ccc(-c2ccccc2OC2CCNCC2)o1: 5.02
- O=C(Nc1ccccc1)c1ccc(-c2cccc(OC3CCNCC3)c2)s1: 6.52
- O=C(Nc1ccc(Cl)cc1)c1ccc(-c2ccccc2OC2CCNCC2)o1: 5.60
- O=C(NCCc1ccccc1)c1ccc(-c2ccccc2OC2CCNCC2)s1: 6.10
- O=C(Nc1ccc(N2CCOCC2)cc1)c1ccc(-c2ccccc2OC2CCNCC2)s1: 5.11
- O=C(Nc1cccc(Cl)c1)c1ccc(-c2ccc(OC3CCNCC3)cc2)s1: 5.92
- O=C(NCCC1CCN(Cc2ccccc2)CC1)c1ccc(-c2ccccc2OC2CCNCC2)s1: 5.53

Please turn your attention to the following entry.
pEC50 recorded for this compound, O=C(Nc1cccc(Cl)c1)c1ccc(-c2ccccc2OC2CCNCC2)s1 , is 5.89

====

# ASSAY REMARKS: in vivo
# MEASUREMENT SETUP: male, BALB/c, mouse, ip, 10 mg/kg, Cmax
READOUT: Cmax

The reported Cmax of the molecule O=C(Nc1ccccc1)c1ccc(-c2ccc(OC3CCNCC3)cc2)s1 was 1680 ng/mL

====

EBOV-GP-pseudotyped virus (pEBOV): reported SI (CC50/EC50) for various compounds.

- O=C(NCCC1CCN(Cc2ccccc2)CC1)c1cnc(-c2ccc(OC3CCNCC3)cc2)s1 [compound 79]: 12
- O=C(NCCC1CCN(Cc2ccccc2)CC1)c1ccc(-c2ccccc2OC2CCNCC2)o1 [compound 101]: 18.7
- O=C(Nc1ccc(Cl)cc1)c1ccc(-c2ccccc2OC2CCNCC2)o1 [compound 99]: 3.1

Result for O=C(Nc1ccc(Cl)cc1)c1ccc(-c2ccc(OC3CCNCC3)cc2)s1 [compound 58] , tested on EBOV-GP-pseudotyped virus (pEBOV), SI (CC50/EC50): 1.39

Value sought: SI (CC50/EC50), system EBOV-GP-pseudotyped virus (pEBOV), item O=C(Nc1cccc(Cl)c1)c1ccc(-c2ccccc2OC2CCNCC2)s1 [compound 48] . Result: 4.8

Field SI (CC50/EC50) (system: EBOV-GP-pseudotyped virus (pEBOV)) for entry O=C(Nc1ccc(Cl)cc1)c1ccc(-c2ccccc2OC2CCNCC2)s1 [compound 47] = 3.32

The reported SI (CC50/EC50) value, EBOV-GP-pseudotyped virus (pEBOV), for O=C(Nc1ccc(Cl)cc1)c1ccc(-c2cccc(OC3CCNCC3)c2)s1 [compound 54] reads 2.8

Given the compound O=C(Nc1ccc(N2CCOCC2)cc1)c1ccc(-c2ccccc2OC2CCNCC2)s1 [compound 50] and test system EBOV-GP-pseudotyped virus (pEBOV), the measured SI (CC50/EC50) is 2.26

Value (SI (CC50/EC50), EBOV-GP-pseudotyped virus (pEBOV)) for record O=C(Nc1ccccc1)c1ccc(-c2ccccc2OC2CCNCC2)o1 [compound 100] = 3.8

Known value: EBOV-GP-pseudotyped virus (pEBOV) SI (CC50/EC50) of the compound O=C(NCCC1CCN(Cc2ccccc2)CC1)c1ccc(-c2ccccc2OC2CCNCC2)s1 [compound 51] equals 2

The reported EBOV-GP-pseudotyped virus (pEBOV) SI (CC50/EC50) of O=C(Nc1cccc(Cl)c1)c1ccc(-c2ccc(OC3CCNCC3)cc2)s1 [compound 59] is 3.8

Entry O=C(NCCc1ccccc1)c1ccc(-c2cccc(OC3CCNCC3)c2)s1 [compound 56] under EBOV-GP-pseudotyped virus (pEBOV) had SI (CC50/EC50) of 1.98

The reported SI (CC50/EC50) value, EBOV-GP-pseudotyped virus (pEBOV), for O=C(NCCc1ccccc1)c1ccc(-c2ccccc2OC2CCNCC2)o1 [compound 102] reads 12.77

The compound O=C(NCCc1ccccc1)c1cnc(-c2ccccc2OC2CCNCC2)s1 [compound 97] , tested on EBOV-GP-pseudotyped virus (pEBOV), showed SI (CC50/EC50) of 14.5

Value (SI (CC50/EC50), EBOV-GP-pseudotyped virus (pEBOV)) for record O=C(NCCc1ccccc1)c1ccc(-c2ccccc2OC2CCNCC2)s1 [compound 49] = 5.6

Entry O=C(Nc1ccccc1)c1ccc(-c2cccc(OC3CCNCC3)c2)o1 [compound 103] : SI (CC50/EC50) on EBOV-GP-pseudotyped virus (pEBOV) = 1.7
